SYSTEM: the molecule itself
EXPERIMENT SUMMARY: AUC
PROPERTY NAME: Kd (µM)

PROTEIN	MEASURED NUMBER
HP1a-CSD W200A (residues 131-206) (domain or fragment, D. melanogaster, UniProt P05205 131-206, looked up) EQDTIPVSGSTGFDRGLEAEKILGASDNNGRLTFLIQFKGVDQAEMVPSSVANEKIPRMVIHFYEERLSAYSDNED	5.8
